Source of measurements: the supplement of paper PMC10567573

// reported protein stability index per item
B1: RAD51 (parent)
chain: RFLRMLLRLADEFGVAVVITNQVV

variants of: B1; assay: protein stability index of a GFP-peptide fusion (GPS, HEK-293T) (PSI 1-6); higher = more stable; conditions: c terminus: a fixed tail appended;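 also: lentivirally expressed fusions sorted by FACS into six bins by GFP to DsRed ratio, PSI derived from sequencing read proportions per bin multiplied by bin number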
Please state the value as a number alone, without comment.

protein stability index measured on L9I = 2.52

protein stability index measured on F2S = 1.91

protein stability index measured on V18P = 2.32

protein stability index measured on Q22L = 1.68
